Origin of the recorded values: patent US4920016A

Procedure Text: Uptake of doxorubicin into J6456 mouse tumors
Test Parameters: in vivo, J6456 mice, IV, fluorometric (Table 14), read-out: Percent of Injected Dose (DXR)/q Tumor (SD)
Experimental Endpoint: tissue uptake at 24 h (%ID/g)
Number in %ID/g, nothing else.

Which value of tissue uptake at 24 h has been reported for COc1cccc2c1C(=O)c1c(O)c3c(c(O)c1C2=O)C[C@@](O)(C(=O)CO)C[C@@H]3O[C@H]1C[C@H](N)[C@H](O)[C@H](C)O1 [FREE DXR, doxorubicin] in the records?
0.4
